I'd be grateful if you could share measured mass density for these entries.
- PROTOCOL DETAILS: xn = mol fraction of the nth substance listed
- CONDITION DETAILS: 298.15 K; 101.3 kPa; Liquid; Vibrating tube method; x2 = 0.7
± gives the expanded uncertainty stated by the source.
Note to self: number, then unit, no commentary.

Short answer for O=C1CCCCC1 [cyclohexanone] + CCCCCCO : mass density was 847.55 ± 1.1 kg/m3

Short answer for O=C1CCCCC1 [cyclohexanone] + CCCCCCCCCCO : mass density was 843.78 ± 1 kg/m3

Short answer for O=C1CCCCC1 [cyclohexanone] + CCO : mass density was 860.95 ± 1.1 kg/m3

Short answer for O=C1CCCCC1 [cyclohexanone] + CCCCO : mass density was 854.54 ± 1.1 kg/m3

Short answer for O=C1CCCCC1 [cyclohexanone] + CCCCCCCCO : mass density was 846.41 ± 1 kg/m3

Source of measurements: the NIST ThermoML archive (doi:10.1021/acs.jced.8b00755)
